// provenance: ChEMBL document CHEMBL1149733

EXPERIMENTAL_TARGET: DNA topoisomerase 2-alpha (Homo sapiens) (UniProt P11388)
Sequence (P11388 whole entry): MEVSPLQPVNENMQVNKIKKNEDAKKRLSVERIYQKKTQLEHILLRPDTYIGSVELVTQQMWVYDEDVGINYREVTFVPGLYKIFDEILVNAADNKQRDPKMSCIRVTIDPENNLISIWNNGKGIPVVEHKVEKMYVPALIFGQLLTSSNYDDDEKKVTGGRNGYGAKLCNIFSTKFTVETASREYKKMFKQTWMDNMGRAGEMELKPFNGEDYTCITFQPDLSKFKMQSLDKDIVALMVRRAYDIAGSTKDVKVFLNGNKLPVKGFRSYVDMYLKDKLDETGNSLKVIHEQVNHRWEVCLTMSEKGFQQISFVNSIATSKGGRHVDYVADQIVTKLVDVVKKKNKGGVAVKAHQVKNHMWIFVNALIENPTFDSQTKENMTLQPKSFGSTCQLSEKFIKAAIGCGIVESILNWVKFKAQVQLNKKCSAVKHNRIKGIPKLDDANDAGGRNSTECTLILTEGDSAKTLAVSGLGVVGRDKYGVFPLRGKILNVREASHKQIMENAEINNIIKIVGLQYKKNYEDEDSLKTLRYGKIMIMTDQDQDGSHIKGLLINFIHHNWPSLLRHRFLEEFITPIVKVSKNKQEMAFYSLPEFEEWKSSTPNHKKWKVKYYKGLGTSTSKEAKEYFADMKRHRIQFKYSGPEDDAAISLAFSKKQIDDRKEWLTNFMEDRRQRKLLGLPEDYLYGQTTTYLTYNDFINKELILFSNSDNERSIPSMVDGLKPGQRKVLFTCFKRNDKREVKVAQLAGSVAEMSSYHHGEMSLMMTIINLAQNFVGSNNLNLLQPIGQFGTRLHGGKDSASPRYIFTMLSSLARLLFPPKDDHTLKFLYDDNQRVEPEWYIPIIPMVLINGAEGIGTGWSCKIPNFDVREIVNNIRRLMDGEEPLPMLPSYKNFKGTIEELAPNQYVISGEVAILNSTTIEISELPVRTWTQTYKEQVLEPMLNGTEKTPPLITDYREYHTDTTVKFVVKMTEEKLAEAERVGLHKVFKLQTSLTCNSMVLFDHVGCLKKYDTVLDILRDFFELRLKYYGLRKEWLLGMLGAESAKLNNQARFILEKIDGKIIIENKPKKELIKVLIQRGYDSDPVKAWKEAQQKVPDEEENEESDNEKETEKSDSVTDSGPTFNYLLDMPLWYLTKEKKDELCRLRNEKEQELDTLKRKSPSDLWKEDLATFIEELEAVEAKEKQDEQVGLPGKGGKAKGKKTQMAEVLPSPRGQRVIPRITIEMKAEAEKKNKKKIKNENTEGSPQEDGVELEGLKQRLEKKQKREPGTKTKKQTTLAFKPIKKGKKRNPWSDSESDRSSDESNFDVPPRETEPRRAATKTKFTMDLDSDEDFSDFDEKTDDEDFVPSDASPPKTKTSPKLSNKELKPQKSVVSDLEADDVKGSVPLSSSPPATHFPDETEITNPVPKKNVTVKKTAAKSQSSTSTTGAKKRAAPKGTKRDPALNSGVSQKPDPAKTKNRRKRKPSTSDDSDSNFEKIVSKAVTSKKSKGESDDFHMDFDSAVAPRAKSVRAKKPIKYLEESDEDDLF
PROCEDURE_DETAILS: Inhibition of human DNA topoisomerase 2
ID50 for assorted molecules
EXPERIMENTAL_READOUT: ID50 (µM)

# MOL_SMILES, QUAL, MEASURED_NUMBER
rows = [
    ("COc1cc([C@@H]2c3cc4c(cc3[C@H](O)[C@H]3COC(=O)[C@H]23)OCO4)cc(O)c1O", "=", 50),
    ("COc1cc([C@@H]2c3cc4c(cc3[C@@H](Nc3ccc(C#N)cc3)[C@H]3COC(=O)[C@H]23)OCO4)cc(O)c1O", "=", 25),
    ("COc1cc([C@@H]2c3cc4c(cc3[C@@H](Nc3ccc(Cl)cc3)[C@H]3COC(=O)[C@H]23)OCO4)cc(O)c1O", ">", 50),
    ("COC1=CC([C@@H]2c3cc4c(cc3[C@@H](Nc3ccccc3)[C@H]3COC(=O)[C@@H]32)OCO4)=CC(=O)C1=O", "=", 25),
    ("COc1cc([C@@H]2c3cc4c(cc3[C@@H](Nc3ccc(CC#N)cc3)[C@H]3COC(=O)[C@H]23)OCO4)cc(O)c1O", "=", 25),
    ("COc1cc([C@@H]2c3cc4c(cc3[C@@H](Nc3cccc([N+](=O)[O-])c3)[C@H]3COC(=O)[C@H]23)OCO4)cc(OC)c1O", "=", 50),
    ("COc1cc([C@@H]2c3cc4c(cc3[C@@H](Oc3ccc(F)cc3)[C@H]3COC(=O)[C@H]23)OCO4)cc(OC)c1O", ">", 100),
]
